- system-tested: T1, ESO157 homolog 4 peptide (…)/HLA-A*02:01 on T2 cells (human)
- T1 construct: also called ESO157 H4
- assay-method-text: FACS, phage on T2 cells, 50 ug/ml peptide;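 further: binding of phage clones to peptide/MHC complexes detected by flow cytometry after staining with an anti-M13 antibody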
quantity-measured: MFI

| binder | quantity-measured | reading |
| --- | --- | --- |
| phage clone 35-16, affinity maturation variant of clone #35 (scFv, V domains shown) VH: QVQLVQSGAEVKKPGSSVKVSCKASEDTFSSYYISWVRQAPGQGLEWMGRIIPTLGIANYAQKYQGRVTLSADKSTSTSYMELNSLRSEDTAVYYCARDWSYSIDYWGQGTLVTVSS VL: QSVVTQPPSVSAAPGQKVTISCSGSSSNIGNNYVSWYQQLPGTAPKLLIYDNNKRPSGIPGRFSGSKSGTSATLGITGLQTGDEADYYCGTWDSSLSAWVFGGGTKLTVLG | MFI | 19.3 |
| phage clone 35-15, affinity maturation variant of clone #35 (scFv, V domains shown) VH: QVQLVQSGAEVKKPGSSVKVSCKASGDTFSSYYISWVRQAPGQGLEWMGRIIPILGIANYAQKYQGRVTLSADKSTSTSYMELNSLSSEDTAVYYCALDWSYSIDYWGQGTLVTVSS VL: QSVVTQPPSVSAAPGQKVTISCSGSSSNIGNNYVSWYQQLPGTAPKLLIYDNNKRPSGIPDRFSASKSGTSATLGITGLQTRDEADYYCGTWDSSLSAWVFGGGTKLTVLG | MFI | 33.8 |
| phage clone 35-12, affinity maturation variant of clone #35 (scFv, V domains shown) VH: QVPLVQSGAEVKKPGSSVRVSCKASGDTFSNYSISWVRQAPGQGLEWMGRIIPILGIANYAQKYQGRVTLSADKSTSTSYMELNSLRSEDTAVYYCARDWSYSIDYWGQGTLVTVSS VL: QSVVTQPPSVSAAPGQKVTISCSGSSSNIGNNYVSWYQQLPGTAPKLLIYDNNKRPSGIPDRFSGSKSGTSTTLGITGLQTGDEADYYCGTWDSSLSAWVFGGGTKLTVLG | MFI | 18.7 |
| phage clone 35-8, affinity maturation variant of clone #35 (scFv, V domains shown) VH: QVPLVQSGAEVKKPGSSVKVSCKASGDTFSSYYISWVRQAPGQGLEWMGRIIPILGIANYAQKYQGRVTLSADKSTSTSYMELNNLRSEDTAVYYCARDWSYSIDYWGQGTLVTVSS VL: QSVVTQPPSVSAAPGQKVTISCSGSSSNIGNNYVSWYQQLPGTAPKLLIYDNNKRPSGIPDRFSGSKSGTSATLGITGLQTGDEADYYCGTWDSSLSAWVFGGGTKLTVL | MFI | 19.6 |
